- Test system: SK-MEL-2
- ASSAY METHOD TEXT: NCI tumour cell line growth inhibition, 48 h
Active and inactive are the calls of the source. No stated cut-off is given here; in the data, active = GI50 up to about 1.1 µM and inactive = higher.
READOUT LABEL: GI50

A selection of reference data follows.
COMPOUND: NC(Cc1ccc(O)c(O)c1)P(=O)(O)O (stereo not drawn)
RECORDED MEASUREMENT: > 100 µM (inactive)
//
COMPOUND: COc1ccc(NC2=CC(=O)C(=O)c3ccccc32)nn1
RECORDED MEASUREMENT: 1.95 µM (inactive)

Qu. Entry under review: `Cc1ccc(/N=N/c2c(C)nn(-c3ccccc3)c2C)c(Br)c1` . Reported GI50?
Ans. > 100 µM (inactive)
